molecular target: Vascular endothelial growth factor receptor 2 (Homo sapiens); details: at 10 µM
Reported residual activity by item:

{"columns": ["Smiles Notation", "residual activity"],
 "data": [
  ["Cc1cccc(-c2[nH]c(C(C)(C)C)nc2-c2ccc3c(c2)OCO3)n1", "79%"],
  ["COc1cccc(-c2cc(=O)c3ccccc3o2)c1N", "102%"],
  ["COc1ccc(S(=O)(=O)N(CCO)c2ccccc2CN(C)C/C=C/c2ccc(Cl)cc2)cc1", "95%"],
  ["COc1ccc(OC)c2c(=S)c3ccccc3[nH]c12", "97%"],
  ["CC#CC(=O)Nc1cc2c(Nc3ccc(F)c(Cl)c3)ncnc2cn1", "86%"],
  ["CCN(CC)C(=O)c1ccc(Nc2nc(OCC3CCCCC3)c3nc[nH]c3n2)cc1", "3%"],
  ["CNc1cc2c(Nc3cccc(Br)c3)ncnc2cn1", "40%"],
  ["N#CCCc1ccc2c(c1)-c1[nH]c3ccc([N+](=O)[O-])cc3c1CC(=O)N2", "13%"],
  ["CC(C)n1cnc2c(NCc3ccccc3)nc(NCCCO)nc21", "93%"],
  ["N#Cc1cnc2cnc(NCc3cccnc3)cc2c1Nc1ccc(F)c(Cl)c1", "76%"],
  ["CC(=O)O/N=C1\\C(=C2\\C(=O)Nc3cc(Br)ccc32)Nc2ccccc21", "5%"]
]}

* * *

Target: Aurora kinase A (Homo sapiens)
Sequence (whole entry): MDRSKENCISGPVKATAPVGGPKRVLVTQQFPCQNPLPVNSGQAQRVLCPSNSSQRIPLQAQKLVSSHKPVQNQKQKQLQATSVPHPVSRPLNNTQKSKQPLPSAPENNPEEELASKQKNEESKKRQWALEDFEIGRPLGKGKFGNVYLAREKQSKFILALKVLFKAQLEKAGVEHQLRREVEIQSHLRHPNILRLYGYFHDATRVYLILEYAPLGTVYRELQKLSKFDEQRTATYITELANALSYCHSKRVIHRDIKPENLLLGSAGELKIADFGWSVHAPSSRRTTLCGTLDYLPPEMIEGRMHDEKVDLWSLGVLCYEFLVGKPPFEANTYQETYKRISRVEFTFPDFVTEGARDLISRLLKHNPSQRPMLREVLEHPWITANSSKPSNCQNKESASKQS
Details: at 10 µM
# note: exactly 70% is not below, so it is not fulfilled; use fulfilled for residual activity strictly under it

{"columns": ["Smiles Notation", "Class Assignment"],
 "data": [
  ["Cc1nc(-c2ccccc2)c(-c2ccncc2)o1", "not fulfilled"],
  ["c1ccc(-c2n[nH]c3c2oc2ccccc23)cc1", "fulfilled"],
  ["CCN(CC)C(=O)c1ccc(Nc2nc(OCC3CCCCC3)c3nc[nH]c3n2)cc1", "fulfilled"],
  ["Cc1ccc(S(=O)(=O)/C=C/C#N)cc1", "not fulfilled"],
  ["COc1ccc(S(=O)(=O)N(CCO)c2ccccc2CN(C)C/C=C/c2ccc(Cl)cc2)cc1", "not fulfilled"],
  ["Cc1ccc(NC2=CC(=O)c3sc(C)nc3C2=O)cc1", "not fulfilled"],
  ["Cc1cncc2cccc(S(=O)(=O)N3CCCN(C(=O)CN)C[C@H]3C)c12", "fulfilled"],
  ["Nc1ccc2ncnc(NCCc3ccc(Oc4ccccc4)cc3)c2c1", "not fulfilled"],
  ["COc1cc2ncnc(Nc3ccc(O)c(Br)c3)c2cc1OC", "fulfilled"],
  ["Nc1nc(Nc2ccc(S(N)(=O)=O)cc2)nn1C(=S)Nc1c(F)cccc1F", "fulfilled"],
  ["CCN(CC)CCCCN1c2ccccc2Oc2ccc(Cl)cc21", "not fulfilled"],
  ["N#CC(C#N)=C(N)/C(C#N)=C/c1ccc(O)cc1", "not fulfilled"],
  ["CC(C)n1cnc2c(NCc3ccccc3)nc(NCCCO)nc21", "not fulfilled"],
  ["O=C1NC(=O)/C(=C\\c2ccc3nccnc3c2)S1", "fulfilled"],
  ["COc1ccc(CNc2nc(N(CCO)CCO)nc3c2ncn3C(C)C)cc1", "not fulfilled"],
  ["Oc1n[nH]c2nnc(-c3c(-c4ccccc4)nn4ccccc34)cc12", "not fulfilled"],
  ["CC[n+]1c(/C=C/N(C)c2ccccc2)n(-c2ccccc2)c2ccc(-c3nc4ccccc4s3)cc21", "not fulfilled"],
  ["Cc1cc(Nc2nc(-c3ccccc3)nc3ccccc23)n[nH]1", "fulfilled"],
  ["Nc1n[nH]c2nnc(-c3c(-c4ccccc4)nn4ccccc34)cc12", "not fulfilled"],
  ["CCC(=O)Nc1ccc2ncnc(Nc3cccc(Br)c3)c2c1", "not fulfilled"],
  ["c1ccc(-c2n[nH]cc2-c2ccnc3ccccc23)nc1", "not fulfilled"]
]}

* * *

Reported residual activity by item:
Biological target: Tyrosine-protein kinase JAK3 (Homo sapiens) (UniProt P52333)
Sequence (whole entry): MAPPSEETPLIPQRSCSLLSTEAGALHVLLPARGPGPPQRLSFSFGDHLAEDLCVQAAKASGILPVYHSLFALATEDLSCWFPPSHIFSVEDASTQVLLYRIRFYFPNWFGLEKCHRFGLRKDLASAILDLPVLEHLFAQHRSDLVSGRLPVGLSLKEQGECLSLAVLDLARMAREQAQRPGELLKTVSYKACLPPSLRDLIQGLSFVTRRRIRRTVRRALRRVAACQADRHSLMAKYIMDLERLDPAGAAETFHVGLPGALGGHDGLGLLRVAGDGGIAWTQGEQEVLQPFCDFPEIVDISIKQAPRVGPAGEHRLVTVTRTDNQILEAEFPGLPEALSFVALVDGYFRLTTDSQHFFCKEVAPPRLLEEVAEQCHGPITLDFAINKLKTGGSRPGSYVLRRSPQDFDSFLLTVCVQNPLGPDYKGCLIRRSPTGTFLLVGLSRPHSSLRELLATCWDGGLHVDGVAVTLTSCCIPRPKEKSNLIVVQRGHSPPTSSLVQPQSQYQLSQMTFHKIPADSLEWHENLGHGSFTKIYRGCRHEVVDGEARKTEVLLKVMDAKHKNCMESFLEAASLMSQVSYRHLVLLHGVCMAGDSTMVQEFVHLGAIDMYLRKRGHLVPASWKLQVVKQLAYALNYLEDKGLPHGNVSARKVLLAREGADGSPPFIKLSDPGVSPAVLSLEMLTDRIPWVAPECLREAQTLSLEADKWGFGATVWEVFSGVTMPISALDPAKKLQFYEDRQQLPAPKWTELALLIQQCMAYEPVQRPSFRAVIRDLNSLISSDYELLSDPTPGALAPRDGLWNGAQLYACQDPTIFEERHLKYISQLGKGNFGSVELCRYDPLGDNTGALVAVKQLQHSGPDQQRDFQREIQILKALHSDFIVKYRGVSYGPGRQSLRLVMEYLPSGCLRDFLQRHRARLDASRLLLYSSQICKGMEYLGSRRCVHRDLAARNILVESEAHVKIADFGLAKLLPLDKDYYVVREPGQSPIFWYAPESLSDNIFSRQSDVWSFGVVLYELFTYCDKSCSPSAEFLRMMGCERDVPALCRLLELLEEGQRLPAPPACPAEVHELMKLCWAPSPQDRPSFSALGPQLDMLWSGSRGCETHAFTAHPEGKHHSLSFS
Settings: at 1 µM

{"columns": ["Compound", "residual activity (%)"],
 "data": [
  ["Cn1nc2c3c(cccc31)C(=O)c1ccccc1-2", 101],
  ["Nc1ccc2ncnc(NCCc3ccc(Oc4ccccc4)cc3)c2c1", 97],
  ["Cc1cc(Nc2nc(-c3ccccc3)nc3ccccc23)n[nH]1", 41],
  ["O=C(O)c1ccc2c3c1cccc3c(=O)n1c3ccccc3nc21", 46],
  ["c1ccc2c(-c3ccncc3)c[nH]c2c1", 103],
  ["COc1cccc(-c2cc(=O)c3ccccc3o2)c1N", 113],
  ["CCN(CC)CCCCN1c2ccccc2Oc2ccc(Cl)cc21", 110],
  ["O=[N+]([O-])c1ccc(-c2nc(-c3ccc(F)cc3)c(-c3ccncc3)[nH]2)cc1", 118],
  ["Cc1nc(-c2ccccc2)c(-c2ccncc2)o1", 97],
  ["CO[C@@H]1[C@H](N(C)C(=O)c2ccccc2)C[C@H]2O[C@]1(C)n1c3ccccc3c3c4c(c5c6ccccc6n2c5c31)C(=O)NC4", 1],
  ["O=C1Nc2ccccc2/C1=C1/Nc2ccccc2/C1=N\\OCCC(O)CO (stereo unspecified)", 13],
  ["c1ccc(-c2n[nH]c3c2oc2ccccc23)cc1", 92],
  ["COc1ccc(C(=O)Nc2sc3c(c2C(N)=O)CCCC3)cc1OC", 99],
  ["O=C(Nc1cccc(Nc2cc(Nc3cccc(C(F)(F)F)c3)ncn2)c1)C1CC1", 106],
  ["O=C1Nc2cc(Br)ccc2/C1=C1/Nc2ccccc2/C1=N\\O", 20],
  ["Cc1cc2ncc(-c3ccccc3)nc2cc1C", 98]
]}

* * *

molecular target: Calcium/calmodulin-dependent protein kinase type 1 (Homo sapiens) (UniProt Q14012); details: at 1 µM
Sequence (Q14012 whole entry, looked up): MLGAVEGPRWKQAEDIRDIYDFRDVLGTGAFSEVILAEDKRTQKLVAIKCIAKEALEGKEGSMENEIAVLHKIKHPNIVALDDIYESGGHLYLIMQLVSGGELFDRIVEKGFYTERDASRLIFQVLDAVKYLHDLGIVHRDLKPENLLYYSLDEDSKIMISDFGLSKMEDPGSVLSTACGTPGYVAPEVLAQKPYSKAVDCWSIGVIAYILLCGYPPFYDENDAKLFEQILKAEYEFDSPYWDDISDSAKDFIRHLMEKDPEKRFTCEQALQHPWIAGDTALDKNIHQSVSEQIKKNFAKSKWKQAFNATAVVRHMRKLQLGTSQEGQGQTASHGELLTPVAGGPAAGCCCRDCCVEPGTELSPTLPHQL

{"columns": ["Molecule", "residual activity (%)"],
 "data": [
  ["CC(=O)c1ccc(N2CCOCC2)cc1O", 108],
  ["Ic1cccc(CSc2nnc(-c3ccncc3)o2)c1", 97],
  ["N#Cc1cnc2cnc(NCc3cccnc3)cc2c1Nc1ccc(F)c(Cl)c1", 42],
  ["O=C1Nc2ccccc2/C1=C1/Nc2ccccc2/C1=N\\OCCC(O)CO (stereo unspecified)", 64],
  ["CN(C)CCCn1cc(C2=C(c3c[nH]c4ccccc34)C(=O)NC2=O)c2ccccc21", 89],
  ["CCC(=O)Nc1ccc2ncnc(Nc3cccc(Br)c3)c2c1", 96]
]}
